Measured pIC50 (DNA gyrase subunit B (Escherichia coli, UniProt P0AES6))
pIC50: −log10 of the molar value.
measured_quantity: pIC50

Use these answered entries as a reference point.
| smiles_representation | recorded_value |
| --- | --- |
| COC(=O)CC(=O)Nc1nc2ccc(NC(=O)c3cc(Cl)c(Cl)[nH]3)cc2s1 | 5.10 |
| COC(=O)CC(=O)Nc1nc2ccc(NC(=O)c3cc(Br)c(Br)[nH]3)cc2s1 | 6.62 |
| O=C(O)CCC(=O)Nc1nc2ccc(NC(=O)c3cc(Br)c(Br)[nH]3)cc2s1 | 7.24 |

(I) CCOC(=O)C(=O)Nc1nc2ccc(NC(=O)c3cc(Br)c(Br)[nH]3)cc2s1
(II) O=C(O)CCC(=O)Nc1ccc2nc(NC(=O)c3cc(Br)c(Br)[nH]3)sc2c1
(III) COC(=O)CCC(=O)Nc1ccc2nc(NC(=O)c3cc(Br)c(Br)[nH]3)sc2c1
(IV) COC(=O)CCC(=O)Nc1nc2ccc(NC(=O)c3cc(Br)c(Br)[nH]3)cc2s1
Query string: # rank by pIC50, ascending (min first) Your task in answering is to list the labels in the requested order.
Result string: III, IV, I, II
(III: 5.15, IV: 6.06, I: 7.09, II: 7.48)

Origin of measurements: ChEMBL document CHEMBL3861980
